- Test system: Recombinant DFR A. andraeanum
- runDescription: In vitro DFR/FNR enzymatic reaction, TLC analysis
- Type: biochemical, Anthurium andraeanum
- experimentalParameters: compound as substrate; pH 6.5, 30° C.
# Specific activity values compiled below
Please state the figure in pkatal/mg; there is no need to write the unit.

Query string: Output measured Specific activity for this item: O=C1c2c(O)cc(O)cc2O[C@H](c2ccc(O)c(O)c2)[C@H]1O [DHQ, dihydroquercetin]
Result string: 1.4

Query string: Output measured Specific activity for this item: O=C1c2c(O)cc(O)cc2O[C@H](c2cc(O)c(O)c(O)c2)[C@H]1O [DHM, dihydromyricetin]
Result string: 1.4

Query string: Output measured Specific activity for this item: O=C1C[C@@H](c2ccc(O)c(O)c2)Oc2cc(O)cc(O)c21 [ERI, eriodictyol]
Result string: 0.8

Query string: Output measured Specific activity for this item: O=C1c2c(O)cc(O)cc2O[C@H](c2ccc(O)cc2)[C@H]1O [DHK, dihydrokaempferol]
Result string: 21

Query string: Output measured Specific activity for this item: O=C1C[C@@H](c2ccc(O)cc2)Oc2cc(O)cc(O)c21 [naringenin]
Result string: 0.7

* * *

- studySystem: Recombinant DFR A. thaliana (Arabidopsis thaliana, UniProt P51102)
- Construct: We amplified full-length cDNA of various plant DFR open reading frames by PCR and RT-PCR; made in house; host or cells: E. coli TOP10F′ (crude lysate)
- Sequence (P51102 whole entry): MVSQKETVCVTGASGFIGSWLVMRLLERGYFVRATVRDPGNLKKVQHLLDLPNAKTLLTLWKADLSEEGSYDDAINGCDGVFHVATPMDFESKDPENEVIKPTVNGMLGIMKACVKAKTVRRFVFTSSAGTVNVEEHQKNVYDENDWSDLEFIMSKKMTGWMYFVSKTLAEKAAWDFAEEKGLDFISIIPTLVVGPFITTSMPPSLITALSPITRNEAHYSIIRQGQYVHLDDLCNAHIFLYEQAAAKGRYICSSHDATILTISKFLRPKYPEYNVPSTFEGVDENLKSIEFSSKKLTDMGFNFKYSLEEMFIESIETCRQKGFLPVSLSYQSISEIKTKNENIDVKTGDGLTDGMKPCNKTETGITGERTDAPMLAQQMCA
- runDescription: In vitro DFR/FNR enzymatic reaction, TLC analysis
- Type: biochemical
- experimentalParameters: compound as substrate; pH 6.5, 30° C.
reportedProperty: Specific activity (pkatal/mg)
Please state the figure in pkatal/mg; there is no need to write the unit.

Before answering, review these 4 worked examples.
O=C1C[C@@H](c2ccc(O)c(O)c2)Oc2cc(O)cc(O)c21; 0.6
O=C1c2c(O)cc(O)cc2O[C@H](c2cc(O)c(O)c(O)c2)[C@H]1O [DHM, dihydromyricetin]; 1.0
O=C1C[C@@H](c2ccc(O)cc2)Oc2cc(O)cc(O)c21; 0
O=C1c2c(O)cc(O)cc2O[C@H](c2ccc(O)cc2)[C@H]1O [DHK, dihydrokaempferol]; 0.002

Query string: Output measured Specific activity for this item: O=C1c2c(O)cc(O)cc2O[C@H](c2ccc(O)c(O)c2)[C@H]1O [DHQ, dihydroquercetin]
Result string: 1.3
